// values below are reported Ki
# target entity: human neprilysin (EC 3.4.24.11; NEP) (Homo sapiens, UniProt P08473)
# Construct: purchased R&D Systems, Minneapolis, Minn; 1182-ZN
# Sequence (P08473 52-750 limits assumed): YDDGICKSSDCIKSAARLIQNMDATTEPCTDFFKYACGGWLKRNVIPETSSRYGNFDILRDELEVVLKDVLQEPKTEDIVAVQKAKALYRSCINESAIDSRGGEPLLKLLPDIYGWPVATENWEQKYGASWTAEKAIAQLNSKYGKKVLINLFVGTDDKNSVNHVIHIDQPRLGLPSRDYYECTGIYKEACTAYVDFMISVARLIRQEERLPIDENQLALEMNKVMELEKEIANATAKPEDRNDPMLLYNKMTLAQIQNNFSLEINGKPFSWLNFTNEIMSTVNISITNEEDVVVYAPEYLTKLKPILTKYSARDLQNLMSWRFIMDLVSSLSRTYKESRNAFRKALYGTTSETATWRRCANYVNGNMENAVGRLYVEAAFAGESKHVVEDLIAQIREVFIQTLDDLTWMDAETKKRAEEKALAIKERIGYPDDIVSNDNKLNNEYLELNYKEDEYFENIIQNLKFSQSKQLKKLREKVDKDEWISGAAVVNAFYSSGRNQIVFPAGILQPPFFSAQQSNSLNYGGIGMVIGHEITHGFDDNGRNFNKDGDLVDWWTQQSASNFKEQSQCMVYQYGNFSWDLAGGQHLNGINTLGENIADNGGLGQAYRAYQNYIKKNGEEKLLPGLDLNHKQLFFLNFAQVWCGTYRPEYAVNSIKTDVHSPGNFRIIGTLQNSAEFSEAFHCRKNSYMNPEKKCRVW
# procedure text: In vitro enzyme inhibition assay at human NEP (fluorogenic peptide substrate)
# Type: biochemical
# measurement parameters: recombinant human NEP; 37° C.; substrate Mca-D-Arg-Arg-Leu-Dap-(Dnp)-OH 10 μM; values given as ranges; read-out: pKi values at human NEP (converted)
# Method: In vitro Assays for the Quantitation of Inhibitor Potencies at Human and Rat NEP, and Human ACE The inhibitory activities of compounds at human and rat neprilysin (EC 3.4.24.11; NEP) and human angiotensin converting enzyme (ACE) were determined using in vitro assays as described below. Recombinant human NEP and recombinant human ACE were obtained commercially (R&D Systems, Minneapolis, Minn., catalog numbers 1182-ZN and 929-ZN, respectively). […]

| compound | Ki |
| --- | --- |
| O=C(N[C@H](Cc1ccccc1)[C@@H](O)C(=O)O)c1cc(F)cc(-c2ccccc2C(=O)O)c1 [Example 10-25] | 1.26 to 10 nM |
| Cc1cc(C(=O)N[C@H](Cc2ccccc2Cl)[C@@H](O)C(=O)O)ccc1-c1ccccc1C(=O)O [Example 6-8] | 1.26 to 10 nM |
| Cc1ccc(C(=O)N[C@H](Cc2ccccc2)[C@@H](O)C(=O)O)cc1-c1cccc(C(=O)O)c1 [Example 10-62] | 12.6 to 100 nM |
| O=C(O)Cc1ccccc1-c1cccc(C(=O)N[C@@H](CC(=O)O)Cc2ccccc2Cl)c1 [Example 13-1] | 12.6 to 100 nM |
| O=C(N[C@H](Cc1ccccc1Cl)[C@@H](O)C(=O)O)c1cc(F)c(F)c(-c2ccccc2C(=O)O)c1 [Example 3] | ≤ 1 nM |
| CC(C)c1ccc(C(=O)N[C@H](Cc2ccccc2)[C@@H](O)C(=O)O)cc1-c1cccc(C(=O)N(C)C)c1 [Example 10-81] | 12.6 to 100 nM |
| CCCCc1ccc(C(=O)N[C@H](Cc2ccccc2)[C@@H](O)C(=O)O)cc1 [Example 10-35] | 12.6 to 100 nM |

###

# target entity: human neprilysin (EC 3.4.24.11; NEP) (Homo sapiens)
# Construct: purchased R&D Systems, Minneapolis, Minn; 1182-ZN
# procedure text: In vitro enzyme inhibition assay at human NEP (fluorogenic peptide substrate)
# Assay type: biochemical
# measurement parameters: recombinant human NEP; 37° C.; substrate Mca-D-Arg-Arg-Leu-Dap-(Dnp)-OH 10 μM; values given as ranges; read-out: pKi values at human NEP (converted)
readout name: Ki

| smiles text | readout name | value observed |
| --- | --- | --- |
| Cc1ccc(C(=O)N[C@@H](CC(=O)O)Cc2ccccc2Cl)cc1-c1ccccc1C(=O)O | Ki | 1.26 to 10 nM |
| Cc1ccc(C(=O)N[C@H](Cc2ccccc2)[C@@H](O)C(=O)O)cc1-c1ccccc1CC(=O)O | Ki | 12.6 to 100 nM |
| O=C(O)c1cc(C(=O)N[C@H](Cc2ccccc2)[C@@H](O)C(=O)O)cc(-c2ccccc2)c1 | Ki | 12.6 to 100 nM |
| CCc1ccc(C(=O)N[C@H](Cc2ccccc2)[C@@H](O)C(=O)O)cc1 | Ki | 12.6 to 100 nM |
| CCc1ccc(C(=O)N[C@H](Cc2ccccc2Cl)[C@@H](O)C(=O)O)cc1N1N=C(C)CC1=O | Ki | 1.26 to 10 nM |
| CCc1ccc(C(=O)N[C@H](Cc2ccccc2)[C@@H](O)C(=O)O)cc1NC(=O)c1cccnc1 | Ki | 12.6 to 100 nM |
| CCc1ccc(C(=O)N[C@H](Cc2ccccc2)[C@@H](O)C(=O)O)cc1NC(=O)c1ccccc1 | Ki | 12.6 to 100 nM |
| O=C(N[C@H](Cc1ccccc1)[C@@H](O)C(=O)O)c1ccc(Cl)c(-c2ccccc2C(=O)O)c1 | Ki | 1.26 to 10 nM |
| O=C(N[C@H](Cc1ccccc1)[C@@H](O)C(=O)O)c1cc(O)cc(-c2ccccc2C(=O)O)c1 | Ki | 12.6 to 100 nM |

###

// values below are reported Ki
# target entity: human neprilysin (EC 3.4.24.11; NEP) (Homo sapiens)
# Construct: purchased R&D Systems, Minneapolis, Minn; 1182-ZN
# procedure text: In vitro enzyme inhibition assay at human NEP (fluorogenic peptide substrate)
# Format: biochemical
# measurement parameters: recombinant human NEP; 37° C.; substrate Mca-D-Arg-Arg-Leu-Dap-(Dnp)-OH 10 μM; values given as ranges; read-out: pKi values at human NEP (converted)
readout name: Ki

| smiles text | value observed |
| --- | --- |
| CC(C)c1ccc(C(=O)N[C@H](Cc2ccccc2)[C@@H](O)C(=O)O)cc1-c1ccncc1 | 12.6 to 100 nM |
| O=C(N[C@H](Cc1ccccc1)[C@@H](O)C(=O)O)c1ccc(-n2cccn2)cc1 | 12.6 to 100 nM |
| Cc1ccc(C(=O)N[C@H](Cc2ccccc2)[C@@H](O)C(=O)O)cc1Br | 12.6 to 100 nM |
| O=C(N[C@H](Cc1ccccc1)[C@@H](O)C(=O)O)c1cccc(-c2cccc(-c3nnn[nH]3)c2)c1 | 12.6 to 100 nM |
| O=C(N[C@H](Cc1ccccc1)[C@@H](O)C(=O)O)c1ccc(-c2ccccc2)c(C(=O)O)c1 | 12.6 to 100 nM |
| O=C(N[C@H](Cc1ccccc1Cl)[C@@H](O)C(=O)O)c1ccc(N2N=C(C(F)(F)F)CC2=O)cc1 | 12.6 to 100 nM |
| CC(C)c1ccc(C(=O)N[C@H](Cc2ccccc2)[C@@H](O)C(=O)O)cc1Br | 12.6 to 100 nM |

###

# target entity: human neprilysin (EC 3.4.24.11; NEP) (Homo sapiens, UniProt P08473)
# Construct: purchased R&D Systems, Minneapolis, Minn; 1182-ZN
# procedure text: In vitro enzyme inhibition assay at human NEP (fluorogenic peptide substrate)
# Type: biochemical
# measurement parameters: recombinant human NEP; 37° C.; substrate Mca-D-Arg-Arg-Leu-Dap-(Dnp)-OH 10 μM; values given as ranges; read-out: pKi values at human NEP (converted)
readout name: Ki

| smiles text | value observed |
| --- | --- |
| CCc1ccc(C(=O)N[C@H](Cc2ccccc2)[C@@H](O)C(=O)O)cc1NC(=O)c1ccccn1 | 12.6 to 100 nM |
| O=C(N[C@H](Cc1ccccc1)[C@@H](O)C(=O)O)c1cccc(-c2ccc(Cl)cc2C(=O)O)c1 | 12.6 to 100 nM |
| CCNC(=O)Nc1cc(C(=O)N[C@H](Cc2ccccc2)[C@@H](O)C(=O)O)ccc1CC | 12.6 to 100 nM |
| O=C(O)Cc1ccccc1-c1ccc(C(=O)N[C@@H](CC(=O)O)Cc2ccccc2Cl)cc1 | 12.6 to 100 nM |
| Cc1cc(C(=O)O)c(NC(=O)Nc2ccc(C(=O)N[C@H](Cc3ccccc3)[C@@H](O)C(=O)O)cc2)s1 | 12.6 to 100 nM |
| Cc1cc(C(=O)N[C@H](Cc2ccccc2)[C@@H](O)C(=O)O)ccc1-n1cccc1 | 12.6 to 100 nM |
| CCc1ccc(C(=O)N[C@H](Cc2ccccc2)[C@@H](O)C(=O)O)cc1-c1ccccc1C(=O)O | 1.26 to 10 nM |
| CCc1ccc(C(=O)N[C@H](Cc2ccccc2)[C@@H](O)C(=O)O)cc1-n1c(=O)[nH]c2sc(C)cc2c1=O | ≤ 1 nM |
| O=C(N[C@H](Cc1ccccc1)[C@@H](O)C(=O)O)c1cccc(-c2cc(Cl)ccc2C(=O)O)c1 | 12.6 to 100 nM |
| Cc1ccc(C(=O)N[C@H](Cc2ccccc2Cl)[C@@H](O)C(=O)O)cc1-c1ccccc1C(=O)O | ≤ 1 nM |
| O=C(N[C@H](Cc1ccccc1)[C@@H](O)C(=O)O)c1cc(Cl)cc(-c2ccccc2C(=O)O)c1 | 1.26 to 10 nM |
| O=C(N[C@H](Cc1ccccc1)[C@@H](O)C(=O)O)c1ccc(-n2ccc(C(F)(F)F)n2)cc1 | 12.6 to 100 nM |
| O=C(N[C@H](Cc1ccccc1Cl)[C@@H](O)C(=O)O)c1cc(Cl)cc(-c2ccccc2C(=O)O)c1 | ≤ 1 nM |
| CCCC1=NN(c2cccc(C(=O)N[C@H](Cc3ccccc3)[C@@H](O)C(=O)O)c2)C(=O)C1 | 12.6 to 100 nM |
| CC(C)c1ccc(C(=O)N[C@H](Cc2ccccc2)[C@@H](O)C(=O)O)cc1 | 12.6 to 100 nM |
| O=C(N[C@H](Cc1ccccc1)[C@@H](O)C(=O)O)c1cccc(-c2ncccc2C(=O)O)c1 | 1.26 to 10 nM |
| O=C(N[C@H](Cc1ccccc1)[C@@H](O)C(=O)O)c1ccc(-n2cccc2)cc1 | 12.6 to 100 nM |
| COc1ccc(C(=O)O)c(-c2cccc(C(=O)N[C@H](Cc3ccccc3)[C@@H](O)C(=O)O)c2)c1 | 12.6 to 100 nM |
| O=C(CCCc1cc(F)ccc1C(=O)O)N[C@H](Cc1ccccc1Cl)[C@@H](O)C(=O)O | ≤ 1 nM |
| CC(C)Cc1ccc(C(=O)N[C@H](Cc2ccccc2)[C@@H](O)C(=O)O)cc1 | 12.6 to 100 nM |
| CCCCC(=O)Nc1cc(C(=O)N[C@H](Cc2ccccc2)[C@@H](O)C(=O)O)ccc1CC | 12.6 to 100 nM |
| O=C(N[C@H](Cc1ccccc1)[C@@H](O)C(=O)O)c1cccc(-c2cc(F)ccc2C(=O)O)c1 | 12.6 to 100 nM |
| Cc1ccc(C(=O)N[C@H](Cc2ccccc2)[C@@H](O)C(=O)O)cc1-c1ccc(C(=O)O)cc1 | 12.6 to 100 nM |
| CC1=NN(c2ccc(C(=O)N[C@H](Cc3ccccc3)[C@@H](O)C(=O)O)cc2)C(=O)C1 | 12.6 to 100 nM |
| O=C(N[C@H](Cc1ccccc1)[C@@H](O)C(=O)O)c1ccc(Cn2ccnc2)cc1 | 12.6 to 100 nM |
| CC1=NN(c2cccc(C(=O)N[C@@H](CC(=O)O)Cc3ccccc3Cl)c2)C(=O)C1 | 12.6 to 100 nM |
| Cc1ccc(C(=O)N[C@H](Cc2ccccc2)[C@@H](O)C(=O)O)cc1-c1ccccc1C(=O)O | 1.26 to 10 nM |
| CC1=NN(c2ccc(C(=O)N[C@@H](CC(=O)O)Cc3ccccc3Cl)cc2)C(=O)C1 | 12.6 to 100 nM |
| O=C(O)Cc1ccccc1-c1ccc(C(=O)N[C@H](Cc2ccccc2)[C@@H](O)C(=O)O)cc1 | 1.26 to 10 nM |
| CCc1ccc(C(=O)N[C@@H](CC(=O)O)Cc2ccccc2Cl)cc1-n1c(=O)[nH]c2sc(C)cc2c1=O | 12.6 to 100 nM |
